Values from patent US11596716B2

# Tested on: C2C12 cells
# Measurement notes: Alkaline Phosphatase (ALP) functional activity assay in C2C12 cells
# Type: cell-based, Mouse
# Experimental setup: compounds of Formula VI, absence of matrix, normalized to DMSO treatment

| Compound | ALP activity −matrix |
| --- | --- |
| CN(C)c1ccc(C=CC(=O)C2CCCC(=Cc3ccc(N(C)C)cc3)C2=O)cc1 (stereo not drawn) | − (<5%) |
| NCCCCC(N)C(=O)Oc1ccc(C=CC(=O)CC(=O)C=Cc2ccc(OC(=O)C(N)CCCCN)cc2)cc1 (stereo not drawn) | − (<5%) |

###

# System: C2C12 cells
# Measurement notes: Alkaline Phosphatase (ALP) functional activity assay in C2C12 cells
# Assay type: cell-based, Mouse
# Experimental setup: compounds of Formula VI, presence of calcium phosphate matrix, normalized to DMSO treatment

| Compound | Target or test system | ALP activity +matrix |
| --- | --- | --- |
| COc1cc(N(C)C)ccc1C=CC(=O)C=C(O)C=Cc1ccc(N(C)C)cc1OC | C2C12 cells | − (<5%) |
| CN(C)c1ccc(C=CC(=O)C2CCCC(=Cc3ccc(N(C)C)cc3)C2=O)cc1 (stereo not shown) | C2C12 cells | ++ (50-100%) |
| CC(C)[C@H](NC(=O)OC(C)(C)C)C(=O)Oc1ccc(C=CC(O)=CC(=O)C=Cc2ccc(O)cc2)cc1 | C2C12 cells | − (<5%) |
| COc1cc(C=CC(=O)C2CCCC(=Cc3ccc(OC(=O)C(N)CCCCN)c(OC)c3)C2=O)ccc1OC(=O)C(N)CCCCN (stereo not shown) | C2C12 cells | + (5-50%) |
| COc1cc(N(C)C)ccc1C=CC(=O)C1CCCC(=Cc2ccc(N(C)C)cc2OC)C1=O (stereo not shown) | C2C12 cells | ++ (50-100%) |
| COc1cc(C=CC(=O)C=C(O)C=Cc2ccc(OC(=O)[C@@H](N)C(C)C)c(OC)c2)ccc1OC(=O)[C@@H](N)C(C)C | C2C12 cells | + (5-50%) |
| NCCCCC(N)C(=O)Oc1ccc(C=CC(=O)CC(=O)C=Cc2ccc(OC(=O)C(N)CCCCN)cc2)cc1 (stereo not shown) | C2C12 cells | + (5-50%) |

###

# Tested on: hMSCs
# Measurement notes: Alkaline Phosphatase functional activity assay in hMSCs
# Format: cell-based, human
# Parameters: key: fold-change vs DMSO-treated control (control = 1)
# Experimental setup: 500 nM, matrix 5 mg/mL; mean +/− SD (n = 3)
Quantity measured: Alkaline Phosphatase activity, +matrix, 8 days

| Compound | Quantitative readout |
| --- | --- |
| Cc1nc2c(-c3ccccc3)cnn2c(NCCN(C)C)c1C | 2.6 |
| CC(C)[C@H](N)C(=O)Oc1ccc(/C=C/C(O)=C2\CCC/C(=C\c3ccc(OC(=O)[C@@H](N)C(C)C)cc3)C2=O)cc1 | 2.7 |
| CC(C)[C@H](N)C(=O)Oc1ccc(C=CC(=O)C=C(O)C=Cc2ccc(OC(=O)[C@@H](N)C(C)C)cc2)cc1 | 1.8 |
| CC(=O)N1c2ccc(C)cc2[C@H](Nc2ccc(C)cc2)C[C@@H]1C (relative stereo) | 1.5 |

###

# System: C2C12 cells
# Measurement notes: Alkaline Phosphatase (ALP) functional activity assay in C2C12 cells
# Type: cell-based, Mouse
# Experimental setup: Mus musculus, C2C12, 144 h; compounds of Formula II or IV, absence of matrix, normalized to DMSO treatment
Consider the following compounds and their measured activation at 0.5 µM readings.
Quantity measured: activation at 0.5 µM

| Compound | Target or test system | Quantity measured | Result |
| --- | --- | --- | --- |
| C[C@H]1C[C@@H](Nc2ccc(F)cc2)c2cc(F)ccc2N1C(=O)c1ccccc1 (relative stereo) [Compound 23] | C2C12 cells | activation at 0.5 µM | 50 to 100% |
| Cc1ccc(N[C@H]2C[C@H](C)N(C(=O)c3ccccc3)c3ccc(C)cc32)cc1 (relative stereo) [Compound 19] | C2C12 cells | activation at 0.5 µM | < 5% |
| Cc1ccc(N(C(=O)c2ccccc2)[C@H]2C[C@H](C)N(C(=O)c3ccccc3)c3ccc(C)cc32)cc1 (relative stereo) [Compound 28] | C2C12 cells | activation at 0.5 µM | < 5% |
| COc1ccc(C(=O)N2c3ccc(F)cc3[C@@H](Nc3ccc(F)cc3)C[C@@H]2C)cc1 (relative stereo) [Compound 26] | C2C12 cells | activation at 0.5 µM | < 5% |
| C[C@H]1C[C@H](N(C(=O)c2ccccc2)c2ccc(F)cc2)c2cc(F)ccc2N1C(=O)c1ccccc1 (relative stereo) [Compound 29] | C2C12 cells | activation at 0.5 µM | > 100% |
| C[C@H]1C[C@@H](Nc2ccccc2)c2ccccc2N1 (relative stereo) [Compound 7] | C2C12 cells | activation at 0.5 µM | 5 to 50% |
| Cc1ccc(N[C@@H]2C[C@H](C)Nc3ccc(C)cc32)cc1 (relative stereo) [Compound 5] | C2C12 cells | activation at 0.5 µM | 5 to 50% |
| C[C@H]1C[C@H](Nc2ccccc2)c2ccccc2N1 (relative stereo) [Compound 8] | C2C12 cells | activation at 0.5 µM | 5 to 50% |
| C[C@H]1C[C@H](Nc2ccc(F)cc2)c2cc(F)ccc2N1C(=O)c1ccccc1 (relative stereo) [Compound 24] | C2C12 cells | activation at 0.5 µM | 50 to 100% |
| COc1ccc(N[C@H]2C[C@H](C)Nc3ccc(OC)cc32)cc1 (relative stereo) [Compound 12] | C2C12 cells | activation at 0.5 µM | > 100% |
| Cc1ccc(N[C@@H]2C[C@H](C)N(C(=O)c3ccccc3)c3ccc(C)cc32)cc1 (relative stereo) [Compound 18] | C2C12 cells | activation at 0.5 µM | > 100% |
| Cc1ccc(N[C@H]2C[C@H](C)Nc3ccc(C)cc32)cc1 (relative stereo) [Compound 6] | C2C12 cells | activation at 0.5 µM | 50 to 100% |
| Cc1ccc(N[C@H]2C[C@H](C)N(C(=O)C(C)C)c3ccc(C)cc32)cc1 (relative stereo) [Compound 15] | C2C12 cells | activation at 0.5 µM | < 5% |
| CC(=O)N1c2ccc(F)cc2[C@H](Nc2ccc(F)cc2)C[C@@H]1C (relative stereo) [Compound 21] | C2C12 cells | activation at 0.5 µM | 5 to 50% |
| Cc1nc2c(-c3ccccc3)cnn2c(NCCC(C)C)c1C [Compound 32] | C2C12 cells | activation at 0.5 µM | < 5% |

###

# System: Wnt transcription
# Measurement notes: WNT transcriptional reporter assay (Super(8×)TOPflash luciferase, HEK293T cells)
# Format: cell-based
# Experimental setup: Wnt3A-expressing vector, 20 hrs, relative to cells treated with DMSO alone, read-out: Wnt transcription potency
pEC50: −log10 of the molar value.
Recorded pEC50 for the following compounds
Quantity measured: pEC50

| Cpd smiles | Target or test system | Quantity measured | Result |
| --- | --- | --- | --- |
| Cc1nc2c(-c3ccccc3)cnn2c(N2CCN(C)CC2)c1C | Wnt transcription | pEC50 | 7.40 to 7.82 |
| Cc1nc2c(-c3ccccc3)cnn2c(NCCN(C)C)c1C | Wnt transcription | pEC50 | < 7.40 |

###

The molecules listed here are annotated with their Alkaline Phosphatase activity, +matrix, 25 days.
# System: hMSCs
# Measurement notes: Alkaline Phosphatase functional activity assay in hMSCs
# Format: cell-based, human
# Parameters: key: fold-change vs DMSO-treated control (control = 1)
# Experimental setup: 500 nM, matrix 5 mg/mL; mean +/− SD (n = 3)
Quantity measured: Alkaline Phosphatase activity, +matrix, 25 days

| Molecule | Target or test system | Quantitative readout |
| --- | --- | --- |
| CC(C)[C@H](N)C(=O)Oc1ccc(/C=C/C(O)=C2\CCC/C(=C\c3ccc(OC(=O)[C@@H](N)C(C)C)cc3)C2=O)cc1 | hMSCs | 4.0 |
| CC(C)[C@H](N)C(=O)Oc1ccc(C=CC(=O)C=C(O)C=Cc2ccc(OC(=O)[C@@H](N)C(C)C)cc2)cc1 | hMSCs | 2.3 |
| CC(=O)N1c2ccc(C)cc2[C@H](Nc2ccc(C)cc2)C[C@@H]1C (relative stereo) | hMSCs | 3.6 |
| Cc1nc2c(-c3ccccc3)cnn2c(NCCN(C)C)c1C | hMSCs | 4.5 |

###

Reported Alkaline Phosphatase activity, −matrix, 8 days values follow for various compounds
# Test system: hMSCs
# Measurement notes: Alkaline Phosphatase functional activity assay in hMSCs
# Type: cell-based, human
# Parameters: key: fold-change vs DMSO-treated control (control = 1)
# Experimental setup: 500 nM; mean +/− SD (n = 3); fold
Quantity measured: Alkaline Phosphatase activity, −matrix, 8 days

| Compound | Target or test system | Quantitative readout |
| --- | --- | --- |
| CC(=O)N1c2ccc(C)cc2[C@H](Nc2ccc(C)cc2)C[C@@H]1C (relative stereo) | hMSCs | 1.2 |
| Cc1nc2c(-c3ccccc3)cnn2c(NCCN(C)C)c1C | hMSCs | 1.5 |
| CC(C)[C@H](N)C(=O)Oc1ccc(C=CC(=O)C=C(O)C=Cc2ccc(OC(=O)[C@@H](N)C(C)C)cc2)cc1 | hMSCs | 1.5 |
| CC(C)[C@H](N)C(=O)Oc1ccc(/C=C/C(O)=C2\CCC/C(=C\c3ccc(OC(=O)[C@@H](N)C(C)C)cc3)C2=O)cc1 | hMSCs | 1.5 |
